Reported Neutralization IC50 (ng/mL), plaque reduction assay, RSV B/18537 values for the following binders.
# SUBJECT_OF_TEST: G protein of RSV B/18537 (ATCC Cat. No. VR-1580), on virus (Respiratory syncytial virus B/18537)
# PROTOCOL: cell-based or functional assay

Worked examples, 3 binders total:
CB017.5L (antibody, V domains shown, Tested as human IgG from the pCP9-lambda vector) VH: QVQLVESGGGVVQPGRSLRLSCSASGFTFSVYAMHWVRQAPGQGLEWVAIIWYDGSNKYYADSVKGRFTISRDNSKETLYLQMNSLRVEDTAVYYCARDPIVGHTRDGLDVWGQGTTVTVSS VL: SYELTQPPSVSVSPGQTARVTCSGDAMAEQYTYWYQQKPGQAPVLIIFKDTERPSGIPERFSGSSSGTTVTLTISGVQTEDEADYYCQSTDSSGTSWVFGGGTKLTVL	3.8 ng/mL
CB076.2L (antibody, V domains shown, Tested as human IgG from the pCP9-lambda vector) VH: QVQLVQSGAEVKKPGSSVKVSCKTSGDTFSNYVVSWVRQAPGQGLEWMGGIIPMFGTTNYAQRFQGRVTISADESTSTAYMEMSSLKSEDTAVYYCARDRYYEVRAGGKVLNTYYYMDVWGKGTTVTVSS VL: SSELTQDPAVSVALGHTVRITCQGDSLRSYYTNWYQQKPGQAPVLVIFGEDNRPSGIPDRFSGSSSGDTASLTITGTQAEDEADYYCNSRDSSGNLWVFGGGTKLTVL	5.6 ng/mL
CB065.1 (antibody, V domains shown, Tested as human IgG from the pCP9-kappa vector) VH: QVQLVESGGGVVQPGRSLRLSCAASGFTFSNYGMHWVRQAPGKGLEWVTIISYDESTTLYADSVKGRFTISRDNSKNTVYLQMNSLRPEDTAVYYCARDHFDPSGYFWYFDLWGRGTLVTVSS VL: DIVMTQSPLSLSVTPGQPASISCKSSQSLLQRDGKTYLYWYLQKPGQSPQLLIYEVSSRFSGVPDRFSGSGSGTDFTLKISRVEAEDVGVYYCMQGIRLPRTFGQGTKVEIK	5.1 ng/mL

Please examine the following record next.
Looking up CB073.1L (antibody, V domains shown, Tested as human IgG from the pCP9-lambda vector) VH: QVQLVESGGGVVQPGRSLRLSCAASGFTFYNYAVHWVRQAPGKGLEWVAVISHDGVNKDYADSVKGRITLSRDNSKNTVYLQLNSLRPEDTAVYYCARDRSYYFGGSVFHLYFDYWGQGTLVTVSS VL: QSVLTQPPSVSGAPGQRVIISCTGSSSNIGAGHDVHWYQQLPGTAPRLLIYANTNRPSGVPDRFSASKSGNSASLVITGLQAEDEADYFCQSHDSSLSGVLFGGGTKLTVL , I found its Neutralization IC50 (ng/mL), plaque reduction assay, RSV B/18537 recorded as 2.9 ng/mL
